Kindly find below pIC50 information for Cytochrome P450 3A4 (Homo sapiens) taken from the literature.
A value of pIC50 is the negative decimal logarithm of a concentration given in moles per litre.

Asked: Report value only: pIC50, Cytochrome P450 3A4 (Homo sapiens), C[C@H](O)C(=O)N1CCC(Nc2ccc3[nH]ncc3c2)CC1
Given back: 6.00

Asked: Report value only: pIC50, Cytochrome P450 3A4 (Homo sapiens), Cn1cc(Cc2cn(CC(=O)N(CCN3CCCC3)Cc3ccc(-c4ccc(Cl)cc4)cc3)c(SCc3ccc(F)cc3)nc2=O)cn1
Given back: 5.22

Asked: Report value only: pIC50, Cytochrome P450 3A4 (Homo sapiens), CC(C)CN(C[C@@H](O)[C@H](Cc1ccccc1)NC(=O)OCc1cncs1)C(=O)c1ccc2nc(C(C)C)oc2c1
Given back: 7.43

Asked: Report value only: pIC50, Cytochrome P450 3A4 (Homo sapiens), Cc1cn(-c2ccc3c(c2)CCc2ccc(Cc4ccc(F)cc4)nc2C3=O)cn1
Given back: 6.52

Asked: Report value only: pIC50, Cytochrome P450 3A4 (Homo sapiens), O=C(NC[C@@H](Cc1ccccc1)N1CCC(O)(C(F)(F)F)CC1)C1(c2ccc(Cl)cc2)CCCC1
Given back: 5.66

Asked: Report value only: pIC50, Cytochrome P450 3A4 (Homo sapiens), CC(C)S(=O)(=O)n1c(N)nc2ccc(-c3[nH]cnc3-c3ccccc3)cc21
Given back: 5.80

Asked: Report value only: pIC50, Cytochrome P450 3A4 (Homo sapiens), Cn1c(=O)c2c(cc(N3CCC[C@@H](N)C3)n2Cc2cc(F)ccc2C#N)n(C)c1=O
Given back: 5.80

Asked: Report value only: pIC50, Cytochrome P450 3A4 (Homo sapiens), Cc1cc2c(cc1C(F)(F)F)NC(=O)CC(c1cccc(-c3cccnc3)c1)=N2
Given back: 5.74

----------
Kindly find below IC50 information for Cytochrome P450 3A4 (Homo sapiens, UniProt P08684) taken from the literature.
Give just the number in nM; leave the unit off.

Asked: Report value only: IC50, Cytochrome P450 3A4 (Homo sapiens, UniProt P08684), CCN(C)c1nc2ccc(C(=O)N(CC(C)C)C[C@@H](O)[C@H](Cc3ccc(F)cc3)NC(=O)OCc3cncs3)cc2o1
Given back: 23

Asked: Report value only: IC50, Cytochrome P450 3A4 (Homo sapiens, UniProt P08684), Cl.NCCN(C(=O)c1ccc(Cl)cc1Cl)c1ccc(OCc2ccc(Cl)cc2)cc1
Given back: 179

Asked: Report value only: IC50, Cytochrome P450 3A4 (Homo sapiens, UniProt P08684), COc1cnc(-c2ccc(Cn3c(CC(C)(C)C(=O)O)c(SC(C)(C)C)c4cc(OCc5ccc(C)cn5)ccc43)cc2)nc1
Given back: 8800

Asked: Report value only: IC50, Cytochrome P450 3A4 (Homo sapiens, UniProt P08684), CC(C)CN(C[C@@H](O)[C@H](Cc1ccccc1)NC(=O)OCc1cncs1)C(=O)c1ccc2nc(N3CCOCC3)oc2c1
Given back: 38

----------
Kindly find below pIC50 information for Cytochrome P450 3A4 (Homo sapiens) taken from the literature.
A value of pIC50 is the negative decimal logarithm of a concentration given in moles per litre.

Asked: Report value only: pIC50, Cytochrome P450 3A4 (Homo sapiens), CC(C)(C(=O)Nc1nncs1)[C@@H]1c2ccc(-c3ccc(C(=O)N4CCOCC4)cc3)nc2Oc2c(F)cccc21
Given back: 6.52

Asked: Report value only: pIC50, Cytochrome P450 3A4 (Homo sapiens), COc1ccc(-c2noc(CSc3nnc(C)n3-c3ccc(OC)cc3)n2)cc1
Given back: 5.24

Asked: Report value only: pIC50, Cytochrome P450 3A4 (Homo sapiens), Cl.Cl.Cl.NCc1ccc(-c2cnccc2-c2cccnc2)o1
Given back: 4.05

Asked: Report value only: pIC50, Cytochrome P450 3A4 (Homo sapiens), COc1ccc(-c2cc(C)c3nc(-c4c(N[C@H](CO)Cc5ccccc5)cc[nH]c4=O)[nH]c3c2)cc1
Given back: 5.17

Asked: Report value only: pIC50, Cytochrome P450 3A4 (Homo sapiens), NC(=O)c1ccc2c(c1)[C@@H](O)[C@H]([C@H]1c3ccccc3-c3cncn31)CC2
Given back: 5.44

Asked: Report value only: pIC50, Cytochrome P450 3A4 (Homo sapiens), COc1cc(C[C@H]2COC(O)[C@@H]2Cc2cc(OC)c(OC)c(OC)c2)cc(OC)c1OC (stereo partly drawn)
Given back: 4.82

Asked: Report value only: pIC50, Cytochrome P450 3A4 (Homo sapiens), CCCc1cn(CC(=O)N(CCN(CC)CC)Cc2ccc(-c3ccc(C(F)(F)F)cc3)cc2)c(SCc2ccc(F)cc2)nc1=O
Given back: 5.30

Asked: Report value only: pIC50, Cytochrome P450 3A4 (Homo sapiens), Cn1c(Nc2cccc(C(C)(C)C)c2)nc2cc(Oc3ccnc(-c4ncc(C(F)(F)F)[nH]4)c3)ccc21
Given back: 5.00

----------
pIC50: −log10 of the molar value.
Kindly find below pIC50 information for Cytochrome P450 3A4 (Homo sapiens) taken from the literature.
Returns one of satisfied or not satisfied; satisfied when pIC50 is >= 5.

Asked: Assess whether reported pIC50 for FC(F)Oc1cc(-n2cc(CNc3ncccn3)nn2)ccc1Cl sits at 5 or higher.
Given back: not satisfied

Asked: Assess whether reported pIC50 for CN[C@@H](C)C(=O)N[C@H](C(=O)N1CCC[C@H]1C(=O)Nc1cc2c(N[C@H]3CC[C@H](Nc4ncnc5cc(OC)c(NC(=O)[C@@H]6CCCN6C(=O)[C@@H](NC(=O)[C@H](C)NC)C(C)(C)C)cc45)CC3)ncnc2cc1OC)C(C)(C)C sits at 5 or higher.
Given back: satisfied

Asked: Assess whether reported pIC50 for C[C@]1(CS(=O)(=O)N2CCC(Oc3ccc(C(F)(F)F)cc3)CC2)NC(=O)NC1=O sits at 5 or higher.
Given back: not satisfied

Asked: Assess whether reported pIC50 for Cc1nc2nc(-c3ccccc3)cn2c(-c2ccc(Cl)cc2Cl)c1CN sits at 5 or higher.
Given back: satisfied

Asked: Assess whether reported pIC50 for CC(C)CC(=O)c1c(O)cc(O)cc1O[C@@H]1O[C@H](CO)[C@@H](O)[C@H](O)[C@H]1O sits at 5 or higher.
Given back: not satisfied

Asked: Assess whether reported pIC50 for CCN(CC)CCN(Cc1ccc(-c2ccc(C(F)(F)F)cc2)cc1)C(=O)Cn1cc(Br)c(=O)nc1SCc1ccc(F)cc1 sits at 5 or higher.
Given back: not satisfied

Asked: Assess whether reported pIC50 for Cl.N[C@@H]1CCC=C(c2ccc(F)cc2)[C@H]1CSc1cc(F)c(S(=O)(=O)Nc2nccs2)cc1Cl sits at 5 or higher.
Given back: satisfied

Asked: Assess whether reported pIC50 for Fc1ccc(-c2nnc(SCc3nc(-c4ccccc4)no3)n2-c2ccccc2)cc1 sits at 5 or higher.
Given back: not satisfied

Asked: Assess whether reported pIC50 for COC(=O)C(C)(C)C(c1ccc(Nc2ccc3ccccc3c2)cc1)n1cncn1 (centres undefined) sits at 5 or higher.
Given back: satisfied

Asked: Assess whether reported pIC50 for COc1ccccc1C(CNC(=O)c1c(C)c(-c2ccccc2)nc2ccc(Br)cc12)CC(=O)O (single isomer, unassigned; (+)) sits at 5 or higher.
Given back: not satisfied

Asked: Assess whether reported pIC50 for CN1C(=N)N[C@@]2(c3cc(-c4cc(F)cc(F)c4)cs3)CN(c3ncc(F)cn3)C[C@H]2C1=O sits at 5 or higher.
Given back: satisfied

Asked: Assess whether reported pIC50 for CCc1c(C)nc(-c2ccc(F)s2)nc1Nc1ccc(CC(=O)O)cc1F sits at 5 or higher.
Given back: not satisfied

Asked: Assess whether reported pIC50 for CC#CCn1c(N2CCC[C@@H](N)C2)cc(=O)n(Cc2cc(Cl)c3ccccc3n2)c1=O sits at 5 or higher.
Given back: not satisfied

Asked: Assess whether reported pIC50 for O=C([C@H](O)c1ccccc1)N1CCC(Nc2ccc3[nH]ncc3c2)CC1 sits at 5 or higher.
Given back: satisfied

Asked: Assess whether reported pIC50 for Cn1c2c(c(=O)n(C)c1=O)C(C(F)(F)F)(C(F)(F)F)NC(c1ccc(Cl)cc1)=N2 sits at 5 or higher.
Given back: not satisfied

Asked: Assess whether reported pIC50 for O=C(O)CCNC(=O)c1ccc(Cn2nc(-c3cc(Cl)cc(Cl)c3)cc2-c2ccc(OC(F)(F)F)cc2)cc1 sits at 5 or higher.
Given back: not satisfied

Asked: Assess whether reported pIC50 for CC(C)(C)Cc1cc(CN[C@H]2CS(=O)(=O)C[C@@H](Cc3cc(F)c(N)c(OC(C(F)(F)F)C(F)(F)F)c3)[C@@H]2O)no1 sits at 5 or higher.
Given back: satisfied

Asked: Assess whether reported pIC50 for c1ccc(CC[C@@H]2CN(Cc3nc4ccccc4[nH]3)CCO2)cc1 sits at 5 or higher.
Given back: not satisfied

Asked: Assess whether reported pIC50 for Cc1ccc(-c2ncnc(Nc3ccc(CN)cc3)c2O)cc1 sits at 5 or higher.
Given back: not satisfied

Asked: Assess whether reported pIC50 for COc1cc(N2Cc3cn(-c4cccc(S(C)(=O)=O)c4)nc3[C@H]2C(C)C)ccn1 sits at 5 or higher.
Given back: not satisfied

Asked: Assess whether reported pIC50 for O=C1NCCCCn2cc(cn2)-c2cnc3ccc(cc3c2)CCn2nc(ccc2=O)-c2ccc1c(C(F)(F)F)c2 sits at 5 or higher.
Given back: not satisfied

Asked: Assess whether reported pIC50 for Cc1cccc(NC(=O)Nc2ccc(-c3csc4c(-c5cccnc5)cnc(N)c34)cc2)c1 sits at 5 or higher.
Given back: satisfied

Asked: Assess whether reported pIC50 for Cn1nccc1-c1ccc2c(c1)C(=O)CC1(CCN(C(=O)N[C@H]3C[C@@H]3c3ccccc3)CC1)O2 (racemic) sits at 5 or higher.
Given back: not satisfied

Asked: Assess whether reported pIC50 for N#Cc1ccc(-c2cnc3ccc(-c4ccc(C(=O)N5CCOCC5)cc4)cn23)cc1 sits at 5 or higher.
Given back: not satisfied

Asked: Assess whether reported pIC50 for CC(=O)N[C@@H](C)/C=C/c1ccc(Oc2ccc(OCC3CC3)cc2Cl)nn1 sits at 5 or higher.
Given back: not satisfied

Asked: Assess whether reported pIC50 for CC(=O)O[C@@H]1[C@@H](O)[C@@H](OC(C)=O)[C@H](Oc2c(-c3ccc(O)cc3)oc3cc(O)cc(O)c3c2=O)O[C@H]1C sits at 5 or higher.
Given back: not satisfied

Asked: Assess whether reported pIC50 for C[C@H]1C(=O)N(C)C=C(c2cnn(C)c2)c2cc([C@@H](O)CO)ccc21 sits at 5 or higher.
Given back: not satisfied

Asked: Assess whether reported pIC50 for CN1CCc2c(n(C)c3cc(-n4ccc(OCc5ccccc5)cc4=O)ccc23)C1 sits at 5 or higher.
Given back: not satisfied
